assay: Oral bioavailability in Sprague-Dawley rat at 90 mg/kg measured up to 24 hrs by LC-MS/MS analysis; assay type: ADME, organism-based; settings: in vivo
ENDPOINT LABEL: bioavailability (%)

STRUCTURE AS SMILES: COc1cc(/C=C/C(=O)c2ccc(F)cc2)c(OC)cc1Br
TEST VALUE: 2.47

###

experiment: Cmax in Sprague-Dawley rat at 10 mg/kg, iv measured up to 24 hrs by LC-MS/MS analysis; type: ADME, organism-based; parameters: route intravenous, dose 10 mg/kg, time <=24; details: in vivo

STRUCTURE AS SMILES: COc1cc(/C=C/C(=O)c2ccc(F)cc2)c(OC)cc1Br
Cmax, ng/mL: 82

Values from ChEMBL document CHEMBL5036380
